// provenance: patent US20200385482A1

- system_under_test: T1, human PD-L1 (hPD-L1) expressed on transfected 300.19 cells (human, UniProt Q9NZQ7 19-290)
- T1 construct: whole, on cells; also called B7H1
- measurement_notes: FACS, hPD-L1 300.19 cells, assay 2, Ab 1 ug/ml
Each record here notes measured Cells PE-A Mean.
result_type: Cells PE-A Mean

| binder | reported_value |
| --- | --- |
| Ab-50 (antibody, V domains shown, also called huPD-L1 Ab # 50) VH: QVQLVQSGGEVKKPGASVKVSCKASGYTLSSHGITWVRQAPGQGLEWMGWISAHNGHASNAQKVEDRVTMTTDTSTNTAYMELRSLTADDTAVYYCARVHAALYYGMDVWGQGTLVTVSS VL: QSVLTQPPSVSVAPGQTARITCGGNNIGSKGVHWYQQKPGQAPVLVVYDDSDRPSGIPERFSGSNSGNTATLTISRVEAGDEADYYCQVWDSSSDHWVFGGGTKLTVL | 63400 MFI |
| Ab-14 (antibody, V domains shown, also called huPD-L1 Ab # 14) VH: QVQLVQSGAEVKKPGASVKVSCKASGYTFTSYGISWVRQAPGQGLEWMGWISAYNGNTNYAQKLQGRVTMTTDTSTSTAYMELRSLRSDDTAVYYCARALPSGTILVGGWFDPWGQGTLVTVSS VL: NFMLTQPHSVSESPGKTVTISCTRSSGNIASNYVQWYQQRPGSAPTTVIYEDNQRPSGVPDRFSGSIDSSSNSASLTISGLKTEDEADYYCQSYDSSNLWVFGGGTKLTVL | 53200 MFI |
| Ab-42 (antibody, V domains shown, also called huPD-L1 Ab # 42; mAb42) VH: QVQLVQSGAEVKKPGSSVKVSCKASGGTFSSYAISWVRQAPGQGLEWMGGIIPIFGTANYAQKFQGRVTITADKSTSTAYMELSSLRSEDTAVYYCARGRQMFGAGIDFWGPGTLVTVSS VL: NFMLTQPHSVSESPGKTVTISCTRSSGSIDSNYVQWYQQRPGSAPTTVIYEDNQRPSGVPDRFSGSIDSSSNSASLTISGLKTEDEADYYCQSYDSNNRHVIFGGGTKLTVL | 72100 MFI |
| Ab-31 (antibody, V domains shown, also called huPD-L1 Ab # 31) VH: QVQLVQSGAEVKKPGATVKVSCKVFGDTFRGLYIHWVRQAPGQGLEWMGGIIPIFGTANYAQKFQGRVTITTDESTSTAYMELSSLRSEDTAVYYCASGLRWGIWGWFDPWGQGTLVTVSS VL: EIVLTQSPATLSLSPGERATLSCRASQSIGNSLAWYQQKPGQAPRLLMYGASSRATGIPDRFSGSGAGTDFTLTISSLEPEDFATYYCQQHTIPTFSFGPGTKVEVK | 71000 MFI |
